- measured on: D(4) dopamine receptor (Homo sapiens, UniProt P21917)
- Sequence (P21917 whole entry): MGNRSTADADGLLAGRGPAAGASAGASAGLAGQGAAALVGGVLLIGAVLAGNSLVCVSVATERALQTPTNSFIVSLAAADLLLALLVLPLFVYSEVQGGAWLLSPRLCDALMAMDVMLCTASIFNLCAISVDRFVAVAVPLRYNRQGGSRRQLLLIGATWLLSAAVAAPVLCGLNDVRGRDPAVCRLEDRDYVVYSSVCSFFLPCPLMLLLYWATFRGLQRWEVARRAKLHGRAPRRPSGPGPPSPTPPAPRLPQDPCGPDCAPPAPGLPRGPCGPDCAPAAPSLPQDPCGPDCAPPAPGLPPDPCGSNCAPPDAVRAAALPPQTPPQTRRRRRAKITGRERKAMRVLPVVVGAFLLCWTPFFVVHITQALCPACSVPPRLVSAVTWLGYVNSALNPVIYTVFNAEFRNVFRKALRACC
- protocol notes: Binding affinity at human Dopamine receptor D4 by [3H]- YM 09151 displacement.
measurement kind: Ki

// solved cases for Ki follow
Prompt: Complete the entry with Ki for CN(C(=O)CN1CCN(Cc2ccc(Cl)cc2)CC1)c1ccccc1
Response: 59 nM

Prompt: Please report Ki for the following molecule: CCN1C(=O)C(N2CCN(Cc3ccc(Cl)cc3)CC2)CCc2ccccc21 (stereo unspecified)
Response: 1510 nM

Prompt: Give the measured Ki for O=C1Nc2ccccc2CCC1N1CCN(Cc2ccc(Cl)cc2)CC1 (stereo unspecified)
Response: > 1000 nM

Prompt: Give a short answer stating reported Ki for Cc1ccc(CN2CCN(C3C(=O)Nc4ccccc43)CC2)cc1 (stereo unspecified) .
Response: > 1000 nM

Prompt: # return recorded Ki for input CN1C(=O)C(N2CCN(Cc3ccc(Cl)cc3)CC2)CCc2ccccc21 (stereo unspecified)
Response: 2470 nM

---
Prompt: Consider the molecule CN1C(=O)C(N2CCN(Cc3ccc(Cl)cc3)CC2)Cc2ccccc21 (stereo unspecified) and give its recorded Ki.
Response: 4 nM

Prompt: Give reported Ki value for CCN1C(=O)C(CC)(N2CCN(Cc3ccc(C)cc3)CC2)c2ccccc21 (stereo unspecified)
Response: > 1000 nM
